Experiment: Single-dose (Pristiq 100 mg, oral) pharmacokinetics in healthy volunteers, plasma LC-MS/MS, non-compartmental
Type: in vivo, human
Conditions: human, plasma, po, 100 mg, 35 healthy volunteers, single oral 100 mg Pristiq, plasma; read-out: Tmax, Mean
Observation type: Tmax
Field: value (include unit after the number)

Q: Please supply the value of reported Tmax for the item CN(C)CC(c1ccc(O)cc1)C1(O)CCCCC1 (stereo not shown)
Ans: 7.4 h

###

Experiment: Single-dose (Pristiq 100 mg, oral) pharmacokinetics in healthy volunteers, plasma LC-MS/MS, non-compartmental
Assay type: in vivo, human
Conditions: human, plasma, po, 100 mg, 35 healthy volunteers, single oral 100 mg Pristiq, plasma; read-out: Kel, Median (converted)
Observation type: k el (s⁻¹)
Express your answer in s⁻¹, writing the number without its unit.

Q: Provide only the value of recorded k el for CN(C)CC(c1ccc(O)cc1)C1(O)CCCCC1 (stereo not shown) [desvenlafaxine, O-desmethylvenlafaxine]
Ans: 1.94e-05

###

Experiment: Single-dose (Pristiq 100 mg, oral) pharmacokinetics in healthy volunteers, plasma LC-MS/MS, non-compartmental
Format: in vivo, human
Conditions: human, plasma, po, 100 mg, 35 healthy volunteers, single oral 100 mg Pristiq, plasma; read-out: Kel, Mean (converted)
Observation type: k el (s⁻¹)
Unit s⁻¹ implied. Number only.

Q: Answer with the recorded k el of CN(C)CC(c1ccc(O)cc1)C1(O)CCCCC1 (stereo not shown) [desvenlafaxine, O-desmethylvenlafaxine] only.
Ans: 2.22e-05

###

Assay: Single-dose (Pristiq 100 mg, oral) pharmacokinetics in healthy volunteers, plasma LC-MS/MS, non-compartmental
Assay type: in vivo, human
Settings: human, plasma, po, 100 mg, 35 healthy volunteers, single oral 100 mg Pristiq, plasma; read-out: Cmax, Median
Excerpt: The present study was nested in a single-dose, open-label, randomized, pharmaco-bioequivalence study performed under biosafety and ethical standards. […] The analytical method was validated according to the respective resolution of the Agência Nacional de Vigilância Sanitária [Brazilian Public Health Surveillance Agency] […] Desvalexine was detected via a multiple reaction monitoring (MRM) transition of 264.33 > 58.15, and orphenadrine was detected via an MRM transition of 270.32 > 181.26. […]
Observation type: Cmax
Number first, unit second.

Q: Given the compound CN(C)CC(c1ccc(O)cc1)C1(O)CCCCC1 (stereo not shown) [desvenlafaxine, O-desmethylvenlafaxine] , write its reported Cmax.
Ans: 276 ng/mL

###

Assay: Single-dose (Pristiq 100 mg, oral) pharmacokinetics in healthy volunteers, plasma LC-MS/MS, non-compartmental
Assay type: in vivo, human
Conditions: human, plasma, po, 100 mg, 35 healthy volunteers, single oral 100 mg Pristiq, plasma; read-out: AUC 0-t, Mean
Observation type: AUC(0-t) (ng·h/mL)
The answer is to be given in ng·h/mL; state only the numeric part.

Q: Give the measured AUC(0-t) for CN(C)CC(c1ccc(O)cc1)C1(O)CCCCC1 (stereo not shown) [desvenlafaxine, O-desmethylvenlafaxine]
Ans: 6050
